- STUDY TARGET: ErbB4 (h) (Homo sapiens, UniProt Q15303)
- Sequence (Q15303 26-1308): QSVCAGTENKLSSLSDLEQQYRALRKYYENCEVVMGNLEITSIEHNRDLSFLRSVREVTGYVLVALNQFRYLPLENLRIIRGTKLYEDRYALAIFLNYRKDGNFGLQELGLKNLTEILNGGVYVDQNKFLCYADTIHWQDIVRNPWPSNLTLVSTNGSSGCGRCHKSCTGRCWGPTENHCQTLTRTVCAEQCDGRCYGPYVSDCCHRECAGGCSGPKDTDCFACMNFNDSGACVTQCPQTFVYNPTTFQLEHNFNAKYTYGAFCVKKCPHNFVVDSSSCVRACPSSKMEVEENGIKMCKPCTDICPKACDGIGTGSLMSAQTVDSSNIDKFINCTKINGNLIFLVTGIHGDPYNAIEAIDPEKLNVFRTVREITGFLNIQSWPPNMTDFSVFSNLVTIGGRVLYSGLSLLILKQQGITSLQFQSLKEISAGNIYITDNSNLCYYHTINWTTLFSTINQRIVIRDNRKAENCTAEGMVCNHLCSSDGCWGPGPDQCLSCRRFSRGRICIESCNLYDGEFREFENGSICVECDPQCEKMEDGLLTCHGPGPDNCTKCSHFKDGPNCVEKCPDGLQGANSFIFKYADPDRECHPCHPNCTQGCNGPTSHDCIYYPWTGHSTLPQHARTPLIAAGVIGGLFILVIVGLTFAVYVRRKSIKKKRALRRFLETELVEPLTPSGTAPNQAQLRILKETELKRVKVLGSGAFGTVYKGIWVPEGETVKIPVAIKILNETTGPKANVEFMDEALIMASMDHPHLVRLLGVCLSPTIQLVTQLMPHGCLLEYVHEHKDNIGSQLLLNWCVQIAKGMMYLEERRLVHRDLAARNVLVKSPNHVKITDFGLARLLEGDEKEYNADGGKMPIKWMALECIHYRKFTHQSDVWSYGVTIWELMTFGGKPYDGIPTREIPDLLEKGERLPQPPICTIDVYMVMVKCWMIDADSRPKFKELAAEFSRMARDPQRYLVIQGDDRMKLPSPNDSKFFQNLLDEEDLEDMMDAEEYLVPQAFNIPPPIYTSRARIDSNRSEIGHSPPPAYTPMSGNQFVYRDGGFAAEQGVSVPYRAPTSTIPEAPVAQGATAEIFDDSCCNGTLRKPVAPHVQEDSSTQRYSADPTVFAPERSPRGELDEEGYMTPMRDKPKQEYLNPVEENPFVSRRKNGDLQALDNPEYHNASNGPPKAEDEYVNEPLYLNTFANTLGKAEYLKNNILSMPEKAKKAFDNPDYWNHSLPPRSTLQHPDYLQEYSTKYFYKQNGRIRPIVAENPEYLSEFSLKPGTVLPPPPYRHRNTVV
ASSAY READOUT: IC50

Lookup: Entry Cc1cc(Oc2cc(NC(=O)C3CC3)ncn2)ccc1NC(=O)Nc1ccc(Cl)c(C(F)(F)F)c1 : reported IC50 = ?
Found: > 10 µM

* * *

- STUDY TARGET: SAPK2b (h) (Homo sapiens, UniProt Q15759)
- Sequence (Q15759 whole entry): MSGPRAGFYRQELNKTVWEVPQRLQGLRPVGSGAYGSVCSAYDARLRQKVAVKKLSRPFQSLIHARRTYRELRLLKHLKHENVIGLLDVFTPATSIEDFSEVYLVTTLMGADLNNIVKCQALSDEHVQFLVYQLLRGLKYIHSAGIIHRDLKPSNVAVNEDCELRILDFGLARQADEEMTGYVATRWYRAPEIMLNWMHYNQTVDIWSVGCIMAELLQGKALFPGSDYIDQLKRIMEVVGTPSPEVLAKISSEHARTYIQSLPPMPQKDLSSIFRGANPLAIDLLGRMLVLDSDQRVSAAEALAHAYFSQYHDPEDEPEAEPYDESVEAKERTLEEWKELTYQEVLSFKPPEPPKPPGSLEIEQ
ASSAY READOUT: pIC50
Hey, just a heads up that pIC50 is the negative log base 10 of the concentration in molar.

Lookup: Find the measured pIC50: item Cc1cc(Oc2cc(NC(=O)C3CC3)ncn2)ccc1NC(=O)Nc1ccc(Cl)c(C(F)(F)F)c1 [CBT-102] , target or system SAPK2b (h) (Homo sapiens, UniProt Q15759).
Found: 7.15

* * *

- STUDY TARGET: UniProt P22607
- Sequence (P22607 23-806): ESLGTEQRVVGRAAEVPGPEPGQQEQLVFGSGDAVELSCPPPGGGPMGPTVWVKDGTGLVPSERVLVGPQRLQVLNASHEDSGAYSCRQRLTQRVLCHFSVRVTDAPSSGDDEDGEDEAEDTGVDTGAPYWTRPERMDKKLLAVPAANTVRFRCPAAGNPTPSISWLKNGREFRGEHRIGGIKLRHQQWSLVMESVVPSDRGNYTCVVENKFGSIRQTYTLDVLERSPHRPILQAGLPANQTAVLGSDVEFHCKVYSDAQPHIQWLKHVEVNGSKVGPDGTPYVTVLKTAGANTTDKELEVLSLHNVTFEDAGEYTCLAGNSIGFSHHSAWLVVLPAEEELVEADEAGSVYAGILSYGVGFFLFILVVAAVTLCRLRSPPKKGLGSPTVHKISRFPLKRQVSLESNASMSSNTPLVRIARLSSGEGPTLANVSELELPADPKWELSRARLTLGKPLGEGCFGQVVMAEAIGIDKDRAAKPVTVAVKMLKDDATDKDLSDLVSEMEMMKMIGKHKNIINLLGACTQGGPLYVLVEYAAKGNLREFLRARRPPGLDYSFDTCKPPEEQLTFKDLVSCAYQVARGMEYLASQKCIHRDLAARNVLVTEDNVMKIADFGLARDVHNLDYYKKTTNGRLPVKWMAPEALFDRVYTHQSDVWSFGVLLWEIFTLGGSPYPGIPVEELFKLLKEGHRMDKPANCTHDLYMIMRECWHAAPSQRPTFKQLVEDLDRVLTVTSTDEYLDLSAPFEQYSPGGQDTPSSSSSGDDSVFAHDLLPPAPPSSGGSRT
pIC50: −log10 of the molar value.
ASSAY READOUT: pIC50

Lookup: Find the measured pIC50: item Cc1cc(Oc2cc(NC(=O)C3CC3)ncn2)ccc1NC(=O)Nc1ccc(Cl)c(C(F)(F)F)c1 , target or system UniProt P22607.
Found: < 5.00

* * *

- STUDY TARGET: Tie2 (h) (Homo sapiens)
- Sequence (Q02763 23-1124): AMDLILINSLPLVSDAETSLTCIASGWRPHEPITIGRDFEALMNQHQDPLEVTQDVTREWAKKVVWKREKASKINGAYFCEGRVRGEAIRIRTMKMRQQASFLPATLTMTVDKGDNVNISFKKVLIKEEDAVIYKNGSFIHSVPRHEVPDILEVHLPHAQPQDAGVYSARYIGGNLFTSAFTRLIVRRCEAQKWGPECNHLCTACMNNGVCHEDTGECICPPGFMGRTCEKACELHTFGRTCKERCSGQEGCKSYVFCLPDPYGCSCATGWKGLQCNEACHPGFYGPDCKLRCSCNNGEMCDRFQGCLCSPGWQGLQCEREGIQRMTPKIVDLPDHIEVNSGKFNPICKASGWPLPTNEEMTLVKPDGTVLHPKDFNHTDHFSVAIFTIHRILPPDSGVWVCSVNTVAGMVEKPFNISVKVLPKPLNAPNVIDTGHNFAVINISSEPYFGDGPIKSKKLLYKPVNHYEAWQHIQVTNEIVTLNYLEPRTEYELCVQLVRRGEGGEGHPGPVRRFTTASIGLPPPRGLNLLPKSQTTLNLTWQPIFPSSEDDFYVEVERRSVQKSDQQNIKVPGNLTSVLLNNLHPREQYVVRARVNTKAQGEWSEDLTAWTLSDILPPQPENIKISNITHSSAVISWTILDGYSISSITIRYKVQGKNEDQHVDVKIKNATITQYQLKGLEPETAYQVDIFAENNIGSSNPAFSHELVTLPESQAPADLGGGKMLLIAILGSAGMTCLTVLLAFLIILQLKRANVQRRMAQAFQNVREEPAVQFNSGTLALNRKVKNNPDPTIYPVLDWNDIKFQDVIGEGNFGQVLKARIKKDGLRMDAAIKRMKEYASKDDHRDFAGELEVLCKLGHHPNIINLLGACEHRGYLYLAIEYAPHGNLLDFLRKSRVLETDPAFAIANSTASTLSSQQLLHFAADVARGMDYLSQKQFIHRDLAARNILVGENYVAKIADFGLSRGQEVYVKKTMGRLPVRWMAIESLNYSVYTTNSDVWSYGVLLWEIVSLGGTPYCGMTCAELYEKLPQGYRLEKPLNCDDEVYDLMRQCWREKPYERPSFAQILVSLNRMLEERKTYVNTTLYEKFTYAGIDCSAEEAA
ASSAY READOUT: pIC50
Hey, just a heads up that pIC50 is the negative log base 10 of the concentration in molar.

Lookup: Find the measured pIC50: item Cc1cc(Oc2cc(NC(=O)C3CC3)ncn2)ccc1NC(=O)Nc1ccc(Cl)c(C(F)(F)F)c1 [CBT-102] , target or system Tie2 (h) (Homo sapiens).
Found: 6.62

* * *

Sequence of the target: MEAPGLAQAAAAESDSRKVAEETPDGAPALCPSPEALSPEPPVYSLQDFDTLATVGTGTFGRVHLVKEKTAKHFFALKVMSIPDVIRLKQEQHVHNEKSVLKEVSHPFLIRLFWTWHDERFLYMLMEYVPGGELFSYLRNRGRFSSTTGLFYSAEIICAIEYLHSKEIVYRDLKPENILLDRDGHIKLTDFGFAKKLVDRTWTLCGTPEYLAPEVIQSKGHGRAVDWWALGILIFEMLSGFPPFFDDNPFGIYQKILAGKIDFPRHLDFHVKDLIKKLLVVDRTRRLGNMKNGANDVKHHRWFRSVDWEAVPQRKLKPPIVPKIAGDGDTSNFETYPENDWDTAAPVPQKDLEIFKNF
pIC50: −log10 of the molar value.
ASSAY READOUT: pIC50

Lookup: Entry Cc1cc(Oc2cc(NC(=O)C3CC3)ncn2)ccc1NC(=O)Nc1ccc(Cl)c(C(F)(F)F)c1 [CBT-102] : reported pIC50 = ?
Found: < 5.00

* * *

- STUDY TARGET: UniProtKB P41240
- Sequence (P41240 whole entry): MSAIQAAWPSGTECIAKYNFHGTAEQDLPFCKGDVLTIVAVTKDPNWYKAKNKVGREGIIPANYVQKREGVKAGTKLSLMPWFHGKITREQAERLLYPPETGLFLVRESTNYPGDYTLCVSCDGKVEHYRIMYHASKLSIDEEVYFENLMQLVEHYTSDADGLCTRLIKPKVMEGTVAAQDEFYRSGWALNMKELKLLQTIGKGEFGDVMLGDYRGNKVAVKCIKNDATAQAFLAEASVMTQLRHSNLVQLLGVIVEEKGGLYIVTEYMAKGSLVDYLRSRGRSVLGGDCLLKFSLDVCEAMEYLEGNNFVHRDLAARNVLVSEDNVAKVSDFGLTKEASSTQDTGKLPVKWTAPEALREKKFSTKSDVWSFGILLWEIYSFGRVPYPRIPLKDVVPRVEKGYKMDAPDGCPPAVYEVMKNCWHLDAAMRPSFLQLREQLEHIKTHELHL
pIC50: −log10 of the molar value.
ASSAY READOUT: pIC50

Lookup: Find the measured pIC50: item Cc1cc(Oc2cc(NC(=O)C3CC3)ncn2)ccc1NC(=O)Nc1ccc(Cl)c(C(F)(F)F)c1 [CBT-102] , target or system UniProtKB P41240.
Found: < 5.00

* * *

- STUDY TARGET: SAPK3 (h) (Homo sapiens, UniProt P53778)
- Sequence (P53778 whole entry): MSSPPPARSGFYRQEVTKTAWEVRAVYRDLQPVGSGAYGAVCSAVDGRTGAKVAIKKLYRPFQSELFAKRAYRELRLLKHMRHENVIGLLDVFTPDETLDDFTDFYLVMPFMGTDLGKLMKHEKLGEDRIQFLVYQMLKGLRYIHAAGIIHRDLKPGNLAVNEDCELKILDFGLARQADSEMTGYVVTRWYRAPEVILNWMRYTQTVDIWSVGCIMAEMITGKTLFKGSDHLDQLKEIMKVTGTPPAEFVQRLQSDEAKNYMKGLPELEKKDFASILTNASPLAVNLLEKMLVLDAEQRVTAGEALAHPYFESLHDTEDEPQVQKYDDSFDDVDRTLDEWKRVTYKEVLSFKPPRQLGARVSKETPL
ASSAY READOUT: pIC50
Hey, just a heads up that pIC50 is the negative log base 10 of the concentration in molar.

Lookup: Find the measured pIC50: item Cc1cc(Oc2cc(NC(=O)C3CC3)ncn2)ccc1NC(=O)Nc1ccc(Cl)c(C(F)(F)F)c1 [CBT-102] , target or system SAPK3 (h) (Homo sapiens, UniProt P53778).
Found: 5.92
